Where do these numbers come from? They come from patent US10131652B2.

# Tested on: yellow nutsedge (Cyperus esculentus)
# protocol_summary: Test D pre-/postemergence plant response
# Format: in vivo
# settings: Cyperus, pre-emergence; Preemergence; 31 g ai/ha; scale 0 to 100 (0 no effect, 100 complete control); read-out: Plant response rating, Nutsedge, Yellow
experimental_endpoint: pest or weed control at 31 g/ha (%)
Numbers only, in %.

Worked cases, answers included:
>>> experimental_value("FC(F)c1cc(-c2ccccc2Oc2ncc(Cl)cn2)no1")
5
>>> experimental_value("Fc1cccc(Oc2ncc(Cl)cn2)c1-c1cc(C(F)(F)F)on1")
5
>>> experimental_value("FCc1cc(-c2ccccc2Oc2ncc(Cl)cn2)no1")
0
>>> experimental_value("N#Cc1cccc(Oc2ncc(Cl)cn2)c1-c1cc(C(F)(F)F)ccn1")
0

Field request: pest or weed control at 31 g/ha | item: Fc1cccc(Oc2ncc(Br)cn2)c1-c1cc(C(F)F)no1
0
